Recorded values, source PubChem BioAssay (NCI).

test system: NCI-H522 lung; assay: NCI-60 one-dose screen, 48 h (100 = growth as untreated, 0 = no growth, -100 = all killed); conditions: 10 µM unless noted
The panel holds about 83,000 compounds, 20% with a hit somewhere; the sample as a whole holds those more often. The source made the active and inactive calls. How the source made its calls: active means growth percent below 10; inactive means the rest.
recorded.metric: growth

Below, 8 molecules whose answers are already recorded.
[
  {
    "molecule": "O=C(c1ccc(Cl)cc1)C1[C@H](c2ccc(Cl)cc2)[C@@H](c2ccccc2)NC12C(=O)Nc1ccccc12 (some centres undefined)",
    "growth": "78% (inactive)"
  },
  {
    "molecule": "COc1ccccc1N1CCN(C2=CC(=O)C(C)=C(C)C2=O)CC1",
    "growth": "88.1% (inactive)"
  },
  {
    "molecule": "NC(N)=Nc1ccc(Oc2ccc(Nc3ccc(Cl)c(C(F)(F)F)c3)cc2)cc1",
    "growth": "18.2% (inactive)"
  },
  {
    "molecule": "CCOc1ccc(C(=O)Nc2ncc(Cc3ccc(F)cc3)s2)cc1",
    "growth": "10.8% (inactive)"
  },
  {
    "molecule": "CCCCCc1ccc(S(=O)(=O)Nc2cccc(-c3csc(NCCN4CCN(C)CC4)n3)c2)cc1",
    "growth": "90.2% (inactive)"
  },
  {
    "molecule": "Nc1nc(-c2cccc([N+](=O)[O-])c2)c(N=Nc2ccc([N+](=O)[O-])cc2Cl)s1",
    "growth": "-3.73% (active)"
  },
  {
    "molecule": "CCc1cccc2c3c(sc12)C(c1ccc(Cl)cc1)C(C#N)=C(/N=C/c1ccc(Cl)cc1)O3 (centres undefined)",
    "growth": "10.8% (inactive)"
  },
  {
    "molecule": "Cc1cc(-c2ccc(Cl)cc2)n(Cc2nnc(SCC(=O)Nc3ccc(S(N)(=O)=O)cc3)n2-c2ccc([N+](=O)[O-])cc2)n1",
    "growth": "90% (inactive)"
  }
]

Prompt line: // growth lookup, key: CC(=O)c1ccc(Nc2nc(SCC(C)C)nc(-c3ccccc3)c2C#N)cc1
Response line: 87.3% (inactive)

----------
test system: DU-145 prostate; experiment: NCI-60 one-dose screen, 48 h; details: 10 µM unless noted
The panel holds about 83,000 compounds, 20% with a hit somewhere; the sample as a whole holds those more often. The source made the active and inactive calls. How the source made its calls: active means growth percent below 10; inactive means the rest.
Mark one answer only. Choices: active, inactive

These recorded examples may help you get a feel for the data.
[
  {
    "molecule": "COc1c(N2CC3CCCNC3C2)c(F)cc2c(=O)c(C(=O)N/N=C/c3ccc(N(C)C)cc3)cn(C3CC3)c12 (stereo unspecified)",
    "label.value": "inactive"
  },
  {
    "molecule": "COc1ccc(CCN2C(=O)CSC2=S)cc1",
    "label.value": "inactive"
  }
]

Prompt line: Each molecule tested received a call. Report the one for COc1ccc(NC(=O)CSc2nnc(-c3ccc4nc(-c5ccccc5)[nH]c4c3)o2)cc1 .
Response line: inactive

Prompt line: Any idea what this test logged for COc1cc(/C=N/NC(=O)c2cn(C3CC3)c3c(OC)c(N4CC5CCCNC5C4)c(F)cc3c2=O)ccc1O (stereo unspecified) ?
Response line: inactive

----------
Test system: U251 CNS
Test: NCI-60 one-dose screen, 48 h (100 = growth as untreated, 0 = no growth, -100 = all killed)
Conditions: 10 µM unless noted
Protocol: Growth inhibition of the U251 human tumor cell line is measured as a screen for anti-cancer activity. Cells are grown in 96 well plates and exposed to the test compound for 48 hours. Compounds are tested at a single concentration, which is 10^-5 M for most compounds. The reported endpoint is percent growth (GI% or GIPRCNT), where numbers from 0 - 100% represent growth inhibition, and numbers from -100% - 0 represent cell death. For example, a value of 40 represents 60% growth inhibition. […]
This is part of a sample that, as a whole, favours compounds with a hit. Of some 83,000 tested, about 20% had one in any assay.
recorded.metric: growth (%)
Express the result in % but write the number alone.

Prompt line: Item under review: CCN(CC)c1ccc(NC2=C(Cl)C(=O)c3nc(C)ccc3C2=O)cc1 . Reported growth?
Response line: 94.3

Prompt line: Given the entry COc1cc(-c2nn(C(C)(C)C)cc2-c2ccnc(NCCCNS(=O)(=O)c3cccc(F)c3)n2)ccc1Cl , report its measured growth.
Response line: 88.3

Prompt line: Which growth is reported for this compound? NC(N)=Nc1ccc(Oc2cccc(Nc3ccc(Br)c(C(F)(F)F)c3)c2)cc1
Response line: -78.9

Prompt line: Endpoint output: growth of NC(N)=Nc1ccc(Nc2cccc(Nc3ccc(Cl)c(C(F)(F)F)c3)c2)cn1 . Value?
Response line: -43.2

Prompt line: Field request: growth | item: COc1cc2nc(Cl)nc(Nc3cccc(C4=Nc5c(N)nc(N)nc5NC(c5ccc6c(c5)OCO6)C4)c3)c2cc1OC (configuration not stated)
Response line: 8.17

Prompt line: What measured growth goes with C[C@@H]1C[C@H]2C(=O)O[C@@H](C)C(NC(=O)[C@H](Cc3cc(F)cc(F)c3)NC(=O)Nc3ccc(C4CC4)cc3F)C(=O)N3CCC[C@H]3C(=O)N3CCCC[C@H]3C(=O)N[C@@H](CO)C(=O)N2C1 (some centres not stated) ?
Response line: 29.8

Prompt line: Give its growth value. Item: O=C(CCn1c[n+](CC(=O)c2ccc(-c3ccccc3)cc2)c2ccccc21)Nc1cccc2cccnc12
Response line: 42.9

Prompt line: Given CNC(=O)c1cc(Oc2ccc3nc(NC(=O)c4cc(N5CCOCC5)cc(C(F)(F)F)c4)sc3c2)ccn1 , state its recorded growth.
Response line: 72.3

Prompt line: Field request: growth | item: CCN(CC)c1ccc2c(c1)Oc1nc(N)c(C#N)c(N)c1C2Sc1ccc(F)cc1 (configuration not stated)
Response line: -73.4

Prompt line: Quick one: growth of CNC(=O)c1cc(-n2ccc3cc(NC(=O)Nc4ccc(N5CCOCC5)c(C(F)(F)F)c4)ccc32)ccn1 ?
Response line: 42

Prompt line: Requested field: growth. Item: Cc1ccc(S(=O)(=O)NCCNc2nc(Nc3ccc(N4CCN(C)CC4)cc3)nc3ccsc23)cc1
Response line: 90.8

Prompt line: Which growth value is on record for CC(C)(C)n1nnnc1C(Nc1cccc2c1OCO2)c1cc2cccc3ccc4cccc1c4c32 (configuration not stated) ?
Response line: 85.9

Prompt line: What value of measured growth is listed for COc1cc2c(cc1OC)C(Sc1ccc(C)cc1)c1c(nc(N)c(C#N)c1N)O2 (configuration not stated) ?
Response line: -69.9

Prompt line: # input compound: COC(=O)c1ccc(NC2=C/C(=N/S(=O)(=O)c3ccc(C(=O)O)cc3)c3ccccc3C2=O)cc1 ; wanted: its growth
Response line: 2.7

----------
system: SF-268 CNS; experiment: NCI-60 one-dose screen, 48 h; conditions: 10 µM unless noted
About 83,000 compounds went through this panel and 20% of them were active in at least one assay; those are over-represented in the sample as a whole. Active and inactive are the calls of the source. How the source made its calls: active means growth percent below 10; inactive means the rest.
Hello, when you answer, please use one of the following outcomes: YES for active, NO for inactive

[
  {
    "molecule": "COc1cc(/C=N/NC(=O)c2cn(C3CC3)c3c(OC)c(N4CC5CCCNC5C4)c(F)cc3c2=O)ccc1O (stereo unspecified)",
    "label.value": "NO"
  },
  {
    "molecule": "C#CCNC1CCC(c2csc(C#C)n2)=C1C (stereo unspecified)",
    "label.value": "NO"
  },
  {
    "molecule": "COc1cc2nc(Cl)nc(Nc3cccc(C4=Nc5c(N)nc(N)nc5NC(c5ccc(Cl)cc5)C4)c3)c2cc1OC (stereo unspecified)",
    "label.value": "NO"
  },
  {
    "molecule": "COc1ccc(OC)c(-c2nc(SCC(=O)c3ccc(Br)cc3)nc(Nc3ccc(S(N)(=O)=O)cc3)c2C#N)c1",
    "label.value": "NO"
  }
]

Prompt line: Which result was noted for this molecule in the test: CC(C)(C)n1cc(-c2ccnc(NCCCNS(=O)(=O)c3cccc(F)c3)n2)c(-c2ccc(Cl)c(O)c2)n1
Response line: NO

Prompt line: Hi team, can someone confirm the assay call for CCOC(=O)c1c(Nc2ccccc2)nn2c(-c3ccc(Cl)cc3)ccnc12 ?
Response line: NO

----------
// values below are reported growth
system: SF-539 CNS; assay: NCI-60 one-dose screen, 48 h (100 = growth as untreated, 0 = no growth, -100 = all killed); conditions: 10 µM unless noted
About 83,000 compounds went through this panel and 20% of them were active in at least one assay; those are over-represented in the sample as a whole.
Report the figure in % without appending any unit label.

Below, 5 compounds whose answers are already recorded.
[
  {
    "compound": "Cn1ccnc1C(=O)/C=C/c1ccc(NC(=O)c2c(F)c(F)c(F)c(F)c2F)cc1",
    "result.units": "%",
    "growth": 108
  },
  {
    "compound": "CC(=O)c1ccc(Nc2nc(SCC(C)C)nc(-c3ccccc3)c2C#N)cc1",
    "result.units": "%",
    "growth": 63.9
  },
  {
    "compound": "COc1cc2c(cc1OC)C(Sc1ccc(F)cc1)c1c(nc(N)c(C#N)c1N)O2 (centres undefined)",
    "result.units": "%",
    "growth": -90.6
  },
  {
    "compound": "O=C1[C@H]2Cc3c([nH]c4ccccc34)[C@@H](c3ccc(Br)cc3)N2C(=O)CN1C1CCN(CC2CCCCC2)CC1",
    "result.units": "%",
    "growth": -89.3
  },
  {
    "compound": "Nn1c(N/N=C/c2nc3ccccc3s2)n[nH]c1=S",
    "result.units": "%",
    "growth": 103
  }
]

Prompt line: May I ask what growth has been recorded for COc1ccc(N2C(=O)c3cc(Cl)ccc3NC2SCc2ccccc2)cc1 (centres undefined) ?
Response line: 98.7
